# Test Description: ATG_TAL_CIS: Attagene CIS-FACTORIAL HepG2 Assay for human TAL Basal Promoter (AID 2282966);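 note: background control endpoint measuring basal TAL promoter reporter mRNA not a specific factor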
# Condition Notes: HepG2 Attagene cis-factorial TAL promoter reporter; actives raise or lower the signal
The source made the active and inactive calls. Rule for the calls: active = hit-call score of the fitted dose curve at least 0.9, where 1 is the maximum; inactive = score below 0.9.
Outcomes: active, inactive

{"Compound": "CNC(=O)O/N=C/C(C)(C)S(C)=O (centres undefined)", "Category Label": "inactive"}
{"Compound": "ClC1=C(Cl)[C@]2(Cl)[C@H]3[C@H]([C@H]4C=C[C@H]3C4)[C@@]1(Cl)C2(Cl)Cl", "Category Label": "inactive"}
{"Compound": "CCC1(c2ccc(N)cc2)CCC(=O)NC1=O (centres undefined)", "Category Label": "inactive"}
{"Compound": "Oc1c(I)cc(I)cc1I", "Category Label": "active"}
{"Compound": "ClCC(Cl)CCl", "Category Label": "inactive"}
{"Compound": "ClCc1ccccn1", "Category Label": "inactive"}
{"Compound": "N#CCCO", "Category Label": "inactive"}
{"Compound": "CC(=[OH+])/C=C(/C)[O-].CC(=[OH+])/C=C(/C)[O-].CC(=[OH+])/C=C(/C)[O-].[Al]", "Category Label": "inactive"}
{"Compound": "COP(=O)(OC)OC", "Category Label": "inactive"}
{"Compound": "COP(=S)(OC)Oc1ccc(Sc2ccc(OP(=S)(OC)OC)cc2)cc1", "Category Label": "active"}
{"Compound": "COc1cccc(C=O)c1", "Category Label": "inactive"}
{"Compound": "CC(=O)OC(c1ccccc1)C(Cl)(Cl)Cl (centres undefined)", "Category Label": "inactive"}
{"Compound": "O=CC=O", "Category Label": "inactive"}
{"Compound": "Nc1ccc(-c2ccc(N)c(Cl)c2)cc1Cl", "Category Label": "inactive"}
{"Compound": "COc1ccc(C=O)cc1OC", "Category Label": "inactive"}
{"Compound": "COC[C@H](C)N(C(=O)CCl)c1c(C)csc1C", "Category Label": "inactive"}
{"Compound": "Nc1ccc(N=Nc2ccc(-c3ccc(N=Nc4c(S(=O)(=O)O)cc5cc(S(=O)(=O)O)c(N=Nc6ccccc6)c(O)c5c4N)cc3)cc2)c(N)c1", "Category Label": "inactive"}
{"Compound": "O=C(CCl)CCl", "Category Label": "inactive"}
{"Compound": "Cc1cc(=O)[nH]o1", "Category Label": "inactive"}
{"Compound": "O=c1[nH]c(=O)[nH]c(=O)[nH]1", "Category Label": "inactive"}
{"Compound": "CC(=O)[O][Hg][c]1ccccc1", "Category Label": "inactive"}
{"Compound": "Clc1nc(Cl)nc(Cl)n1", "Category Label": "inactive"}
{"Compound": "NNC(=S)NN", "Category Label": "inactive"}
{"Compound": "Nc1cccc(Cl)c1", "Category Label": "inactive"}
{"Compound": "CCOC(=O)CP(=O)(OCC)OCC", "Category Label": "inactive"}
{"Compound": "Clc1ccc(COC(Cn2ccnc2)c2ccc(Cl)cc2Cl)cc1 (centres undefined)", "Category Label": "inactive"}
{"Compound": "C[C@H]1O[C@@H](O[C@H]2[C@@H](O)C[C@H](O[C@H]3[C@@H](O)C[C@H](O[C@H]4CC[C@@]5(C)[C@H](CC[C@@H]6[C@@H]5CC[C@]5(C)[C@@H](C7=CC(=O)OC7)CC[C@]65O)C4)O[C@@H]3C)O[C@@H]2C)C[C@H](O)[C@@H]1O", "Category Label": "active"}
{"Compound": "O=C/C=C/c1ccccc1", "Category Label": "inactive"}
{"Compound": "C(=NC1CCCCC1)=NC1CCCCC1", "Category Label": "inactive"}
{"Compound": "ClC(Cl)=C(Cl)C(Cl)=C(Cl)Cl", "Category Label": "inactive"}
{"Compound": "C[C@]12CCC(=O)C[C@@H]1CC[C@@H]1[C@@H]2CC[C@]2(C)[C@@H](O)CC[C@@H]12", "Category Label": "inactive"}
{"Compound": "CCCCOCCOC(C)=O", "Category Label": "inactive"}
{"Compound": "COP(=O)(OC)O/C(=C\\Cl)c1cc(Cl)c(Cl)cc1Cl", "Category Label": "active"}
{"Compound": "CCOP(=S)(OCC)SCCS(=O)(=O)CC", "Category Label": "inactive"}
